# System: SF-268 CNS
# Assay Procedure: NCI tumour cell line growth inhibition, 48 h
# maps each entry to its TGI

Would you please look over these solved cases?
>>> print(df.to_string())
                                   molecule  study_system  assay_readout  recorded_measurement
0  O=c1c2cc(Br)ccc2nc(-c2ccccc2Cl)n1NCC1(O)OCC(O)C(O)C1O (stereo not given)    SF-268 CNS            TGI              > 100 µM
1  CCN1CN(c2ccccc2)C2(CCN(CCCSc3ccc(F)cc3)CC2)C1=O    SF-268 CNS            TGI               28.3 µM
2              CN=CN(C)c1c2ccccc2nc2ccccc12    SF-268 CNS            TGI              > 100 µM
3  Cc1nc2sc(C(=O)Nc3cccc4ccccc34)c(N)c2cc1C(=O)/C=C/c1ccccc1    SF-268 CNS            TGI             > 32.4 µM

Attention now turns to another entry.
Recorded TGI for CCCCCCCCC(=O)N(C)C1C2CN3CCC(O2)C13 (stereo not given) , please?
> 100 µM

====

# System: M14 melanoma
# Assay Procedure: NCI tumour cell line growth inhibition, 48 h; in the data active = GI50 below about 0.43 µM; inactive = the rest
Choose the fitting class; nothing outside yes (active), no (inactive) is accepted.

Use the examples below as a reference point.
>>> print(df.to_string())
                                   molecule  class
0  CC1=CCC(OC(=O)C(C)(C)CCC(O)(C(=O)OC2(C(C)C)CCC3(C)OC3C2)C(C)C)(C(C)C)CC1 (configuration not stated)     no
1  COc1ccc(C(=O)/C=C/c2c(C(F)(F)F)nc3sccn23)cc1OC     no
2  Cn1ccnc1C(=O)/C=C/c1ccc(CC(=O)Nc2ccc(S(F)(F)(F)(F)F)cc2)cc1     no
3  CC(C)[C@@]12C[C@@H](OC(=O)COC(=O)/C=C/c3ccccc3)[C@@](C)(O1)[C@@H]1CC[C@@H](C)[C@H]1[C@@H]2OC(=O)/C=C/c1ccccc1     no
4  COc1ccc(-c2nnc(SCC(=O)Nc3ccc(/C(C)=N\O)cc3)n2-c2ccccc2)cc1OC     no

Continue with the next molecule.
Look up the recorded call for CCCCCCCCCCC(O)[C@H]1CCC(C2CC[C@H]([C@H](O)CCCCCCCCCCC(O)CC3=CC(C)OC3=O)O2)O1 (some centres not stated) in this test.
no

====

// values below are reported TGI
# Tested on: EKVX NSCLC
# Assay Procedure: NCI tumour cell line growth inhibition, 48 h

Reference set (5 entries):
>>> print(df.to_string())
                                   compound  recorded_measurement
0  COC(=O)C1CC=C(SC(=O)c2ccccc2)N1C(=O)c1ccccc1 (stereo unspecified)              > 100 µM
1        O=c1[nH]c(=O)n(COCCO)c2ccc(Br)cc12              > 100 µM
2  Cc1nc2cnc3cc(F)c(-c4ccc(Oc5ncccn5)cc4Cl)cc3c2n1[C@H]1CCN(C(=O)CO)C[C@@H]1F             > 95.5 µM
3  CC(=O)OC1COC(n2nc(/C=C/c3ccc(Cl)cc3)c(=O)n(/N=C/c3ccccc3)c2=S)C(OC(C)=O)C1OC(C)=O (stereo unspecified)              > 100 µM
4                   COc1ccc2oc(=O)cc(C)c2c1              > 100 µM

Consider the additional compound presented here.
Need TGI, item N#Cc1c(N)nc(N2CCOCC2)c(C#N)c1-c1ccc(Cl)cc1
> 100 µM
